- Assay Details: Probe fluorescence ratio response to arachidonic acid relative to ADIFAB2
- Format: binding
- Study Conditions: arachidonic acid; response relative to ADIFAB2
Assay Readout: DR/DR AA
Just the number, please, no unit attached.

| Molecule | Assay Readout | Numeric Value |
| --- | --- | --- |
| 34S, 72A (protein, listed as Rattus norvegicus, PEPTIDE (1)...(131) wild-type rat intestinal fatty acid binding protein) AFDGTWKVDRNENYEKFMEKMGINVVKRKLGAHSNLKLTITQEGNKFTVKESSNFRNIDVVFELGVDFAYSAADGTELTGTWTMEGNKLVGKFKRVDNGKELIAVREISGNELIQTYTYEGVEAKRIFKKE | DR/DR AA | 0.58 |

Now for a further molecule.
Query: Form field: reported DR/DR AA of 14Q 18L 31A 73W 117V 72A (protein, listed as Rattus norvegicus, PEPTIDE (1)...(131) wild-type rat intestinal fatty acid binding protein) AFDGTWKVDRNENQEKFLEKMGINVVKRKLAAHDNLKLTITQEGNKFTVKESSNFRNIDVVFELGVDFAYSAWDGTELTGTWTMEGNKLVGKFKRVDNGKELIAVREISGNELIQTVTYEGVEAKRIFKKE
Result: 1.558
